- Tested on: A2058
- procedure.summary: Proliferation inhibition, CellTiter-Glo
- Format: cell-based, human
- stated.conditions: Table D-1; 3 days; read-out: A2058 Prolif. EC50
- Description: All cancer cell lines (A375, A101D, A2058, RKO, HT29 SK-MEL 30, IPC298, HepG2, HCT-116, Lovo, SW620, SW480, NCI-H358, NCI-H2122, Calu-6, NCIH2087, NCIH1755, NCIH1666 and Mewo) were obtained from ATCC and cultured in RPMI-1640 medium (Gibco) supplemented with 5% heat inactivated fetal bovine serum (FBS, Wisent) at 37° C. under 5% CO2. […] The effect of each compound dilution on the proliferation of cancer cell lines was expressed in % inhibition and calculated as follows. […]
pEC50: −log10 of the molar value.
observation.type: pEC50

smiles.input: Cc1c(F)cccc1S(=O)(=O)Nc1ccc(F)c(Nc2ncnc3cnc(-n4cc(C(=O)N(C)Cc5ccncc5)c5ccccc54)nc23)c1F
observation.type: pEC50
reported.result: > 6.52
//
smiles.input: COc1ccc(S(=O)(=O)Nc2ccc(F)c(Nc3ncnc4cnc(-n5cnc6c(N)cccc65)nc34)c2F)c(C)c1Cl
observation.type: pEC50
reported.result: > 6.52

Task: Value lookup for pEC50; key = "O=S(=O)(Nc1ccc(F)c(Nc2ncnc3cnc(-n4cnc5c(N6CCC7(CCCO7)CC6)cccc54)nc23)c1F)c1cccc(Cl)c1Cl"
Output: > 6.52
